- Measurement target: Human SARS-CoV-2_Wuhan S (SmT1) (SARS-CoV-2 (Wuhan), UniProt P0DTC2 14-1208)
- Method notes: flow cytometry SVNA, VHH-Fc vs biotin-S binding to Vero E6 ACE2
Measured quantity: Imax %
Numeric answer plus unit only.

Binder | Imax %
NRCoV2-1a VHH-Fc (Fc fusion, bivalent VHH-Fc) EVKLVQSGGGSVQPGGSLRLSCAASGSTLDYYAIGWFRQAPGKEREWVSCVSSSDGSTLYADSVKGRFTISRDNAKNTVYLQMNSLKPEDTAVYVCAADYSMRPLWVSRWHRDYEYWGQGTQVTVSS | 94%

Prompt: Any idea what its Imax % is? The binder is NRCoV2-11 VHH-Fc (Fc fusion, bivalent VHH-Fc) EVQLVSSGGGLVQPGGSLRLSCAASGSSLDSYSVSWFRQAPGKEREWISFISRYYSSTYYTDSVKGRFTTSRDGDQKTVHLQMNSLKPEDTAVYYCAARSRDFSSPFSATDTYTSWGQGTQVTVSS
Completion: 63%
